- subject_of_test: human adenosine A3 receptor (Homo sapiens, UniProt P0DMS8)
- Construct: expressed in transfected cells; host or cells: Chinese hamster ovary (CHO) cells containing CRE/SPAP/HYG reporter elements
- Sequence (P0DMS8 1-318): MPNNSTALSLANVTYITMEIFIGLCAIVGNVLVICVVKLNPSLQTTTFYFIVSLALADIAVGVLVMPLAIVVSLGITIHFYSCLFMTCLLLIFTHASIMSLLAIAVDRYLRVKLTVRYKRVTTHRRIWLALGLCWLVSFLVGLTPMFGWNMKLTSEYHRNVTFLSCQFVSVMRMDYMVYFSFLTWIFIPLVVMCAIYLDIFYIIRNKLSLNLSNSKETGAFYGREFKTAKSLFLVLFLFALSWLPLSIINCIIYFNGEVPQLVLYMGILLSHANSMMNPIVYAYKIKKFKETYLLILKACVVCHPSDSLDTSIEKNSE
- test_details: Reporter gene assay (CRE/SPAP) in CHO cells, agonist activity, adenosine A3
- Assay type: cell-based
- cond: CHO cells stably transfected with human adenosine A3 receptor; inhibition of forskolin-stimulated SPAP production; potency relative to NECA=1
outcome_measure: A3 Receptor, Reporter Gene Assay ECR (equipotent concentration ratio relative to NECA=1)

A selection of reference data follows.
>>> assay_result("CC(C)(C)CNc1nc(Cl)nc2c1ncn2[C@@H]1O[C@H](CF)[C@@H](O)[C@H]1O")
">233.00"
>>> assay_result("O[C@@H]1[C@H](O)[C@@H](CF)O[C@H]1n1cnc2c(NC3CC4CCC3C4)nc(Cl)nc21 (stereo partly shown) [Example 8]")
">91.00"
>>> assay_result("O[C@@H]1[C@H](O)[C@@H](CF)O[C@H]1n1cnc2c(Nc3ccc(Cl)cc3F)ncnc21")
">170.00"
>>> assay_result("O=S1(=O)CCC(Nc2ncnc3c2ncn3[C@@H]2O[C@H](CF)[C@@H](O)[C@H]2O)CC1")
">162.00"
>>> assay_result("CC(C)(C)CNc1ncnc2c1ncn2[C@@H]1O[C@H](CF)[C@@H](O)[C@H]1O")
">353.00"

Prompt line: Would you mind telling me what A3 Receptor, Reporter Gene Assay ECR (equipotent concentration ratio relative to NECA=1) value was observed for CC(C)CNc1nc(Cl)nc2c1ncn2[C@@H]1O[C@H](CF)[C@@H](O)[C@H]1O ?
Response line: >145.00

Prompt line: Next compound up: O[C@@H]1[C@H](O)[C@@H](CF)O[C@H]1n1cnc2c(NC3CCOCC3)nc(Cl)nc21
Response line: >139.00

Prompt line: Next compound up: O[C@@H]1[C@H](O)[C@@H](CF)O[C@H]1n1cnc2c(N[C@H]3CCC[C@@H]3O)ncnc21
Response line: >152.00

Prompt line: Next compound up: CC(=O)N1CCC(Nc2nc(Cl)nc3c2ncn3[C@@H]2O[C@H](CF)[C@@H](O)[C@H]2O)CC1
Response line: >162.00

Prompt line: Next compound up: CCNC(=O)N1CCC(Nc2nc(Cl)nc3c2ncn3[C@@H]2O[C@H](CF)[C@@H](O)[C@H]2O)CC1
Response line: >236.00

Prompt line: Next compound up: O=S1(=O)CCC(Nc2nc(Cl)nc3c2ncn3[C@@H]2O[C@H](CF)[C@@H](O)[C@H]2O)CC1
Response line: >435.00

Prompt line: Next compound up: CNS(=O)(=O)CCNc1ncnc2c1ncn2[C@@H]1O[C@H](CF)[C@H](O)[C@H]1O
Response line: >353.00

Prompt line: Next compound up: CC(F)(F)[C@H]1O[C@@H](n2cnc3c(NCC4CC4)ncnc32)[C@H](O)[C@@H]1O
Response line: >353.00

Prompt line: Next compound up: CC(C)(C)Nc1ncnc2c1ncn2[C@@H]1O[C@H](CF)[C@@H](O)[C@H]1O
Response line: >353.00

Prompt line: Next compound up: Cc1nc(NC2CCOCC2)c2ncn([C@@H]3O[C@H](CF)[C@@H](O)[C@H]3O)c2n1
Response line: >226.00

Prompt line: Next compound up: CCOC(=O)N1CCC(Nc2ncnc3c2ncn3[C@@H]2O[C@H](CF)[C@@H](O)[C@H]2O)CC1
Response line: >435.00

* * *

- subject_of_test: human adenosine A3 receptor (Homo sapiens)
- Construct: expressed in transfected cells; host or cells: Chinese hamster ovary (CHO) cells containing CRE/SPAP/HYG reporter elements
- test_details: Reporter gene assay (CRE/SPAP) in CHO cells, agonist activity, adenosine A3
- Format: cell-based
- cond: CHO cells stably transfected with human adenosine A3 receptor; inhibition of forskolin-stimulated SPAP production; potency relative to NECA=1
outcome_measure: A3 Receptor, Reporter Gene Assay ECR (equipotent concentration ratio relative to NECA=1)

A selection of reference data follows.
>>> assay_result("CC(F)(F)[C@H]1O[C@@H](n2cnc3c(NC4CC5CCC4C5)ncnc32)[C@H](O)[C@@H]1O (stereo partly shown) [Example 5]")
">257.00"
>>> assay_result("O[C@@H]1[C@H](O)[C@@H](CF)O[C@H]1n1cnc2c(N[C@@H]3CCC[C@H]3F)nc(Cl)nc21 [Example 6]")
">156.00"
>>> assay_result("CCCCOC(=O)N1CCC(Nc2nc(Cl)nc3c2ncn3[C@@H]2O[C@H](CF)[C@@H](O)[C@H]2O)CC1 [Example 26]")
">233.00"
>>> assay_result("O[C@@H]1[C@H](O)[C@@H](CF)O[C@H]1n1cnc2c(NC3CC4CCC3C4)nc(Cl)nc21 (stereo partly shown) [Example 25]")
">151.00"
>>> assay_result("O[C@@H]1[C@H](O)[C@@H](CF)O[C@H]1n1cnc2c(NC3CC4CCC3C4)ncnc21 (stereo partly shown) [Example 11]")
">152.00"
>>> assay_result("O[C@@H]1[C@H](O)[C@@H](CF)O[C@H]1n1cnc2c(NC3CCSCC3)ncnc21 [Example 21]")
">353.00"
>>> assay_result("OCC(O)CNc1nc(Cl)nc2c1ncn2[C@@H]1O[C@H](CF)[C@@H](O)[C@H]1O (stereo partly shown) [Example 16]")
">240.00"
>>> assay_result("CS(=O)(=O)N1CCC(Nc2nc(Cl)nc3c2ncn3[C@@H]2O[C@H](CF)[C@@H](O)[C@H]2O)CC1 [Example 23]")
48.90

Prompt line: For the record O[C@@H]1[C@H](O)[C@@H](CF)O[C@H]1n1cnc2c(N[C@H]3CCC[C@@H]3O)nc(Cl)nc21 [Example 7] , what value of A3 Receptor, Reporter Gene Assay ECR (equipotent concentration ratio relative to NECA=1) is listed for human adenosine A3 receptor (Homo sapiens)?
Response line: >91.00

Prompt line: Next molecule up: CCOC(=O)N1CCC(Nc2nc(Cl)nc3c2ncn3[C@@H]2O[C@H](CF)[C@@H](O)[C@H]2O)CC1 [Example 9]
Response line: >129.00

* * *

- subject_of_test: human adenosine A1 receptor (Homo sapiens, UniProt P30542)
- Construct: expressed in transfected cells; host or cells: Chinese hamster ovary (CHO) cells containing CRE/SPAP/HYG reporter elements
- Sequence (P30542 1-326): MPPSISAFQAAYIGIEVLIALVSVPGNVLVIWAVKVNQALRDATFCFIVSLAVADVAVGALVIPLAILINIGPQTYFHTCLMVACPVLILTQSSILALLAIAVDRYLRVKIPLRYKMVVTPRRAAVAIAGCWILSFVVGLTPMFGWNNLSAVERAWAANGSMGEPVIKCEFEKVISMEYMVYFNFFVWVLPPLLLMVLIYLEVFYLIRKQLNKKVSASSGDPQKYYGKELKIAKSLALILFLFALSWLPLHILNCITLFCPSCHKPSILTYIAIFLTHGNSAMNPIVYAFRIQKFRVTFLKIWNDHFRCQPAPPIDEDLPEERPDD
- test_details: Reporter gene assay (CRE/SPAP) in CHO cells, agonist activity, adenosine A1
- Assay type: cell-based
- cond: CHO cells stably transfected with human adenosine A1 receptor; inhibition of forskolin-stimulated SPAP production; potency relative to NECA=1
Quick reference for A1 Receptor, Reporter Gene Assay ECR (equipotent concentration ratio relative to NECA=1) among some compounds
# answer = number (no unit)

>>> assay_result("CC(C)(C)CNc1ncnc2c1ncn2[C@@H]1O[C@H](CF)[C@@H](O)[C@H]1O [Example 19]")
3.51

Prompt line: Would you mind telling me what A1 Receptor, Reporter Gene Assay ECR (equipotent concentration ratio relative to NECA=1) value was observed for CC(C)CNc1nc(Cl)nc2c1ncn2[C@@H]1O[C@H](CF)[C@@H](O)[C@H]1O [Example 22] ?
Response line: 3.30

Prompt line: Next compound up: CC(F)(F)[C@H]1O[C@@H](n2cnc3c(NCC4CC4)ncnc32)[C@H](O)[C@@H]1O [Example 17]
Response line: 22.30

Prompt line: Next compound up: CCOC(=O)N1CCC(Nc2ncnc3c2ncn3[C@@H]2O[C@H](CF)[C@@H](O)[C@H]2O)CC1 [Example 14]
Response line: 1.68
